- measured_target: T1, EsCas13d, nuclease-dead (Eubacterium siraeum, UniProt B0MS50, R295A;H300A;R849A;H854A)
- T1 sequence: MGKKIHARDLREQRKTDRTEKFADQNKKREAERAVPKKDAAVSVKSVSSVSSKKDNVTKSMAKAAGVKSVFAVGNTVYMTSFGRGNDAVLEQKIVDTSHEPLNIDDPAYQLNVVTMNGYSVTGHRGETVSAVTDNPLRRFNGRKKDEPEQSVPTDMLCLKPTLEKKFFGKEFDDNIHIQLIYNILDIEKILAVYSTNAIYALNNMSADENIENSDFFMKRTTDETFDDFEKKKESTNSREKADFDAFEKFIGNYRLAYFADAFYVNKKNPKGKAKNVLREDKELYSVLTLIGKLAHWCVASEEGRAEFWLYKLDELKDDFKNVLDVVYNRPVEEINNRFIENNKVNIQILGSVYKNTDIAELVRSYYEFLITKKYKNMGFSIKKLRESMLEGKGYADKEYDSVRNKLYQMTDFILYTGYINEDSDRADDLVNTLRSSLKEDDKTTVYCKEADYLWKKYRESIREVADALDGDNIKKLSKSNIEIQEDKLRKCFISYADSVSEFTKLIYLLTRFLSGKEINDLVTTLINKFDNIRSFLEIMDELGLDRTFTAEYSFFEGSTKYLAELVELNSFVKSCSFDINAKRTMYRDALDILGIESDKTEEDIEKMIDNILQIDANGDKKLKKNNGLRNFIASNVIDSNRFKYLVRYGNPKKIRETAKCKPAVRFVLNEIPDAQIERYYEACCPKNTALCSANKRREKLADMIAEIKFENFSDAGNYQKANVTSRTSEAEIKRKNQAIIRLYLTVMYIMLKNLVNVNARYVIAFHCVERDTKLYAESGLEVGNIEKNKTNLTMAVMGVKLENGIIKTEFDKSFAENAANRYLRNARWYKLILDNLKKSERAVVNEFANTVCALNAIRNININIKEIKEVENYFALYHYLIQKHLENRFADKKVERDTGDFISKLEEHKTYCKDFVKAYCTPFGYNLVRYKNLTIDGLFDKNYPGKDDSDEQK
- assay_notes: crRNA (strand 1, pre-loaded); Mg2+; 40 mM Tris-HCl pH 7.5, 150 mM NaCl, 6 mM MgCl2, 1 mM DTT, 0.1% Tween-20, 0.2 mg/ml BSA; 25 C; 10 min per concentration, then washed
- test_context: tags: His6-TwinStrep-SUMO cleaved; N-terminal SNAP kept (SNAP-Surface 488); label: 3' end held by stalled T7 RNA polymerase
assay_endpoint: Kd
Lab note: write values as number then unit, every time.

binder	Kd
target 1 C4G,U19A (mixed) RNA 1: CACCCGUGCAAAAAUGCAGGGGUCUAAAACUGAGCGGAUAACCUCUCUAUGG RNA 2: GGGAAUGGAUCCACAUCUACGAAUUCGUACCAAAGAGAGGUUAUCCGGUCACCGAGAUCGGAAGAGCACACGU	51 nM

Kd reported for this binder target 1 A9C,G17U (mixed) RNA 1: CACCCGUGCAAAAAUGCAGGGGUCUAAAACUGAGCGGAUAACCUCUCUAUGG RNA 2: GGGAAUGGAUCCACAUCUACGAAUUCGUACCAUAUAGAGGUUCUCCGCUCACCGAGAUCGGAAGAGCACACGU : 62 nM
